Where these numbers come from: PubChem BioAssay (NCI)

Tested on: OVCAR-8 ovarian
testSummary: NCI-60 one-dose screen, 48 h
conditionSet: 10 µM unless noted
Protocol: Growth inhibition of the OVCAR-8 human tumor cell line is measured as a screen for anti-cancer activity. Cells are grown in 96 well plates and exposed to the test compound for 48 hours. Compounds are tested at a single concentration, which is 10^-5 M for most compounds. The reported endpoint is percent growth (GI% or GIPRCNT), where numbers from 0 - 100% represent growth inhibition, and numbers from -100% - 0 represent cell death. For example, a value of 40 represents 60% growth inhibition. […]
The panel holds about 83,000 compounds, 20% with a hit somewhere; the sample as a whole holds those more often. Calls of active or inactive are those of the source. The calls were made as follows: active = growth percent below 10; inactive = the rest.
Response enum: true (1) for active, false (0) for inactive

Given `CN1C=CN(Cc2ccc(-c3ccccn3)nc2)[CH-]1.CN1C=CN(Cc2ccc(-c3ccccn3)nc2)[CH-]1.[Au+3]` , state the outcome it received in this test.
false (0)

Entry Cc1csc(NC(c2ccc(Br)cc2)c2c(C)nc3ccccn23)n1 (stereo unspecified) : call = ?
false (0)

Could you kindly confirm the outcome this assay logged for `COc1ccc(-c2nc(/C=C3/C(=O)Nc4ccc(F)cc43)c3ccccn23)cc1` ?
false (0)

Which outcome was assigned to `OCCCCCCNc1ncnc2cc(Cl)ccc12` in this test?
false (0)

Called result for `Nc1cccc(-c2nc3sccn3c2-c2ccnc(NCCNS(=O)(=O)c3ccc(C(F)(F)F)cc3)n2)c1`
false (0)

Given `N#C/C(=C1C=C/C(=N/O)C(Cl)=C/1)c1ccc(Cl)cc1` , state the outcome it received in this test.
false (0)

How was `Nc1ncnc2c1c(-c1ccc(Oc3ccccc3)cc1)nn2C[C@@H]1SSC[C@@H]1O` classified in this test?
false (0)

Hello, I am checking results. What call was entered for `O=c1[nH]c(-c2ccccc2)nc(CN2CCCCC2)c1O` ?
false (0)

Test call, this compound: `Cc1ccc(CSC(=N)N)cc1C`
false (0)

In this assay, the call recorded for `N=C(N)c1ccc(-c2cc(Cl)cc(Cl)c2)cn1` was what?
false (0)

Dear colleague, could you share the recorded outcome for `Cc1cc(N/N=C/c2nc(-c3ccc(Br)cc3)oc2C)c2cc(Br)ccc2n1` when you have a moment?
false (0)

Which outcome was assigned to `CC(C)(C)n1cc(-c2ccnc(NCCNS(=O)(=O)c3ccc(C(F)(F)F)cc3)c2)c(-c2cccc(O)c2)n1` in this test?
false (0)

Each compound tested received a call. Report the one for `CCOC(=O)c1c(NS(=O)(=O)c2ccc(C)cc2)sc2c1CCC1(C2)OCCO1` .
false (0)

I would be grateful if you could indicate the recorded call for `O=C(Nc1ccncc1)C(=O)c1cn(S(=O)(=O)c2ccc(Br)cc2)c2ccccc12` .
false (0)

GET /call?item= `N/C(=N\C(N)=N\c1nc2ccccc2s1)c1ccncc1` returns the recorded outcome of this test.
false (0)

For `C=C1C(=O)O[C@H]2[C@H]1CC/C(Cn1cc(-c3cccc(Cl)c3)nn1)=C\CC[C@@]1(C)O[C@@H]21` , what call appears in the results of this test?
true (1)

Identify the outcome logged in this assay for the compound shown: `O=C1NN(C(=O)c2ccc(Cl)cc2)C(c2ccccc2)=N/C1=C\c1ccc(F)cc1`
false (0)

Test call, this compound: `FC(F)(F)c1cccc(-c2cn3c(ccc4ccccc43)n2)c1`
false (0)

Which result was noted for this compound in the test: Cc1[nH]c2ccc(F)cc2c1CCNC(=O)C1CCN(C(=O)c2ccccc2)C1 (stereo unspecified)
false (0)

Write down the call the test reported for this compound. Item: `COc1ccncc1S(=O)(=O)NC(=O)Nc1ccc(Cl)c(Cl)c1`
false (0)

Returns: the outcome recorded for CCCCCCCCC(C)OC(=O)c1nn(C(C)=O)c2ccccc12 (stereo unspecified) in this assay.
false (0)

Test call for this compound, please: `CC(C)(C)n1cc(-c2ccnc(NCCNS(=O)(=O)c3ccc(F)cc3)c2)c(-c2cccc(O)c2)n1`
false (0)

Name the outcome recorded for `S=c1[nH]nc(-c2cc3ccc2CCc2ccc(cc2)CC3)n1-c1ccccc1` in the assay.
false (0)

Outcome? `c1ccc(-c2cn(-c3ccccc3)c(-c3ccccc3)n2)cc1`
false (0)

What was the test verdict on `COc1ccc(-c2c(-c3cc(OC)c4c(c3)OCO4)noc2N)cc1` ?
true (1)

How was `COc1cc(Nc2ncccc2C(=O)NCc2cn(Cc3cccc(Oc4ccccc4)c3)nn2)cc(OC)c1` classified in this test?
false (0)

Tell me the recorded outcome of this test for `Cc1ccc(Nc2nnc(-c3ccc(Cl)cc3)o2)c(C)c1` .
false (0)

Record request — test call for C=C1CCC2C3(C)COC(c4c(OC)cccc4OC)OC3CCC2(C)C1C/C=C1/C(=O)OCC1O (stereo unspecified)
false (0)

Kindly provide the recorded test outcome for the following compound: CC(O)CN1CCCCC1 (stereo unspecified)
false (0)

I'd appreciate the recorded outcome for COc1ccc(C2C=C(c3ccc(OC)c(OC)c3)N=C3SC=C(C)N32)c(Br)c1 (stereo unspecified) from this test.
false (0)

For `Clc1cc(Cl)cc(-c2ccc(-c3ccc(/C=N/NC4=NCCN4)cc3)s2)c1` , which call appears in the assay record?
false (0)

Would you mind telling me which call this test gave `COc1cc(-c2nn(-c3cccc(NC(=O)c4ccccc4)c3)cc2-c2ccncc2)ccc1Cl` ?
false (0)

Which result was noted for this compound in the test: `Fc1ccc(Nc2ncnc3ccc(-c4cnc5[nH]ccc5c4)cc23)cc1Cl`
true (1)

Name the outcome recorded for `Cc1nc2ncccc2nc1Nc1ccc(S(=O)(=O)Nc2ccccn2)cc1` in the assay.
false (0)

For COc1ccc(/C=C2/C(=O)NC(SCC(=O)N3CCN(c4cc5c(cc4F)c(=O)c(C(=O)O)cn5C4CC4)CC3)=NC2N)cc1OC (stereo unspecified) , what call appears in the results of this test?
false (0)

Recorded test outcome, item COc1ccc2c(c1)OC1=C(C(=O)OC1)C2c1cc(OC)c2c(c1)OCO2 (stereo unspecified)
false (0)

Status in this test for COc1ccc(OC)c(C2OC(c3ccc4ccccc4c3O)=NN2C(C)=O)c1 (stereo unspecified) ?
false (0)

Tell me the recorded outcome of this test for `Cc1ccc(C(=O)NCCCNc2nccc(-n3ccc4cccnc43)n2)cc1` .
false (0)

Recorded test call requested for `CN(C)c1cccc2c(S(=O)(=O)/N=C(\N)Nc3nc4ccccc4s3)cccc12`
false (0)

# fetch the recorded call for `CCCCCCN1CSC(=S)N(CCCCCC)C1` here
false (0)

Recorded test call requested for `N#Cc1c(-c2ccccc2)nc(SCC(=O)N2CCN(c3ccccc3)CC2)[nH]c1=O`
false (0)

----------
System: OVCAR-5 ovarian
testSummary: NCI-60 one-dose screen, 48 h
conditionSet: 10 µM unless noted
Compounds without any hit were thinned out: in the full panel of roughly 83,000, 20% have a hit. Active and inactive are the calls of the source. How the source made its calls: active means growth percent below 10; inactive means the rest.
Outcome (select one): 1 (yes) for active, 0 (no) for inactive

Called result for `CCN(CC)CCOc1ccc(Cl)c(C)c1`
0 (no)

How was CN(C)c1nc2c(N)ncnc2n1C1OC(CO)C(O)C1O (stereo not given) classified in this test?
0 (no)

Tell me the recorded outcome of this test for `COc1ccc(Nc2nn3c(C)cc(C)nc3c2C(=O)Nc2ccc(C)cc2)c(OC)c1` .
0 (no)

Entry COc1ccc(C2C(C#N)=C(N)Oc3c2ccc2ccccc32)cc1 (stereo not given) : call = ?
0 (no)

State the result this test recorded for `O=C1/C(=C/c2ccc(Cl)cc2)CN(Cc2cn(CCNc3ccnc4cc(Cl)ccc34)nn2)C/C1=C\c1ccc(Cl)cc1` .
1 (yes)

----------
Tested on: KM12 colon
testSummary: NCI-60 one-dose screen, 48 h (100 = growth as untreated, 0 = no growth, -100 = all killed)
conditionSet: 10 µM unless noted
Compounds without any hit were thinned out: in the full panel of roughly 83,000, 20% have a hit.
Sorting guide: entries reporting growth beneath 60% go in the 1 pile, the rest go in the 0 pile.

In plain terms, does `CC(C)(C)n1cc(-c2ccnc(NCCCNS(=O)(=O)c3ccccc3)c2)c(-c2cccc(O)c2)n1` come in under 60% for growth?
1

Does `COc1cccc(-c2nc3sccn3c2-c2ccnc(NCCCNS(=O)(=O)c3ccc(C(F)(F)F)cc3)c2)c1` have growth strictly under 60%?
1

Just wondering, is growth of `O=C(c1c[nH]c(=O)c(-c2ccccc2)c1)c1ccccc1O` below 60%?
0

# check: growth < 60% for `C=CCn1c2ccccc2c2c3c(c4c5ccccc5n(CC=C)c4c21)C(=O)N(O)C3=O`
1

Answer whether the compound `N[C@@H]1CCN(C(=O)c2cc3cc(Cl)c(F)c(F)c3[nH]2)C1` has growth strictly less than 60%
0

A record lists `COC(=O)c1nc(-c2ccccc2)oc1S(=O)(=O)N1CCN(c2cccc(Cl)c2)CC1` . Is its growth below 60%?
0

Would you kindly verify if growth of `CCC(=O)Oc1ccc(/C(=C(/C)Cc2cccc(OC)c2)c2ccc(OCCN(C)C)cc2)cc1` is strictly less than 60%?
0
